testDetails: NCI Yeast Anticancer Drug Screen. Data for the sgs1 mgt1 strain (AID 161);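 also: 0% = growth of cultures given vehicle only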
assayConditions: S. cerevisiae sgs1 mgt1 strain, at 50.0 µM
The panel holds about 79,000 compounds, 15% with a hit somewhere; the sample as a whole holds those more often. The source made the active and inactive calls. Rule as the data show it: active = growth inhibition above about 70%; inactive = the rest.
Pick from T (active), F (inactive) when you respond.

Use the examples below as a reference point.
Cc1ccc(C(=N)c2ccccc2Cc2ccccc2)cc1
F
OC(C/C(=N\Nc1ccccc1)c1ccc(F)cc1)(C(F)(F)F)C(F)(F)F
T
COC(=O)C1CC2(C(=O)OC)CC(C(=O)OC)(CC(C(=O)OC)C2=O)C1=O (stereo not given)
F

In the following, a different compound is considered.
Please let me know the test result on file for CN1C(=O)N(c2nc3ccccc3[nH]2)C(C)(C)C1=O . F

* * *

testDetails: NCI Yeast Anticancer Drug Screen. Data for the mlh1 rad18 strain (AID 175)
assayConditions: S. cerevisiae mlh1 rad18 strain growth inhibition; at 50.0 µM; stronger effect = higher value
About 79,000 compounds went through this panel and 15% of them were active in at least one assay; those are over-represented in the sample as a whole. Activity calls are given as the source filed them. Cut-off read from the data, not from the text of the source: active = growth inhibition above about 70%; inactive = the rest.
attributeMeasured: growth inhibition

For orientation, consider the following solved cases.
Nc1cc(=O)[nH]c2ncnn12
20.1% (inactive)
O=C(O)CNc1ccccc1.[Cu+2]
-15.8% (inactive)
CCN(CC)c1ccc(NCC(O)c2cc(Cl)ccc2OC)cc1 (centres undefined)
-1.65% (inactive)
O=C(NC(CSC(=O)c1ccccc1)C(=O)O)c1ccccc1 (centres undefined)
7.45% (inactive)
CC1(C)C=C(S(=O)(=O)c2ccccc2)Oc2ccccc2O1
31.9% (inactive)

Entry CC(C)n1cnc2c(=O)[nH]c(=O)[nH]c21 : reported growth inhibition = ? 2.9% (inactive)

Record request: growth inhibition value, item Cn1c(CC(O)c2nc3ccccc3n2C)nc2ccccc21 (centres undefined) -33.5% (inactive)

Tell me the measured growth inhibition of CC(=O)NC(Cc1ccc(O)cc1)C(=O)O (centres undefined) , please. -3.45% (inactive)

# input compound: CC(C)(C)OC(=O)NC(C)(C)C(=O)NCCC(=O)O ; wanted: its growth inhibition -13.5% (inactive)

* * *

testDetails: NCI Yeast Anticancer Drug Screen. Data for the mlh1 rad18 strain (AID 175)
assayConditions: S. cerevisiae mlh1 rad18 strain growth inhibition; at 50.0 µM; stronger effect = higher value
This is part of a sample that, as a whole, favours compounds with a hit. Of some 79,000 tested, about 15% had one in any assay.
attributeMeasured: growth inhibition (%)
Reply numerically in %, unit not repeated.

Would you please look over these solved cases?
COCCN1CCC(CO)C1 (stereo not drawn)
10.5
CCCCCCCSCC1OC(n2cnc3c(N)ncnc32)C(O)C1O (stereo not drawn)
9.3
CC(=O)c1c(C)[nH]c(-c2ccccc2)c1NS(=O)(=O)c1ccc(N)cc1
8.95
CCCCON1C[C@H](OC(C)=O)C(OC(C)=O)[C@H](OC(C)=O)C1 (stereo partly drawn)
-24.6

Given the compound COc1ccccc1/C=N/N1C(=O)C2C3C=CC(O3)C2C1=O (stereo not drawn) , what is its reported growth inhibition? 14.5

Can you look up the measured growth inhibition of O=C(Nc1ccccc1C(=O)N/N=C/c1ccccc1Cl)c1ccccc1Cl for me? 4.1

Item CCOC(=O)CC[C@@H](NC(=O)c1ccc(NCc2ccc3nc(OC)c(OC)nc3c2)cc1)C(=O)OCC has what recorded growth inhibition? -13.4

* * *

testDetails: NCI Yeast Anticancer Drug Screen. Data for the sgs1 mgt1 strain (AID 161);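 also: 0% = growth of cultures given vehicle only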
assayConditions: S. cerevisiae sgs1 mgt1 strain, at 50.0 µM, stronger effect = higher value
This is part of a sample that, as a whole, favours compounds with a hit. Of some 79,000 tested, about 15% had one in any assay.
attributeMeasured: growth inhibition (%)
Write it as a number; the unit % goes unstated.

// known answers, use as guide
O=C1C(CCCS)C(c2ccccc2)=NN1c1ccccc1 (configuration not stated)
18.4
COC(=O)CCSCCC(=O)OC
-8.15
NCCCCC(N)C(=O)O.[Cu+2] (configuration not stated)
-4.9
COc1ccc2ccc3c(OC(C)=O)ccc(CCN(C)C(C)=O)c3c2c1OC(C)=O
18.9
C=C1CCc2ccccc2C1=O
4.25

Endpoint output: growth inhibition of O=c1[nH]nc(Cc2ccc(Cl)cc2)n1O . Value? 0.1

What value of measured growth inhibition is listed for NC(CCCC(N)P(=O)(O)c1ccccc1)P(=O)(O)c1ccccc1 (configuration not stated) ? -63.5

Need growth inhibition, item CC(=O)O[C@H]1C[C@]2(C)C(CCC3O[C@@]32C)[C@@]2(CC(c3ccoc3)OC2O)[C@@H]1C (some centres not stated) -29.9

I am curious: what growth inhibition value has been reported for CCCC(O)c1ccccc1Cl (configuration not stated) ? 24.9

Which growth inhibition reading was recorded for the compound COc1c2c(c(OC)c3c(=O)c4ccccc4[nH]c13)OCO2 ? 26.9

* * *

Reported growth inhibition values for the following compounds.
testDetails: NCI Yeast Anticancer Drug Screen. Data for the mlh1 rad18 strain (AID 175)
assayConditions: S. cerevisiae mlh1 rad18 strain growth inhibition; at 50.0 µM; stronger effect = higher value
The panel holds about 79,000 compounds, 15% with a hit somewhere; the sample as a whole holds those more often.
Could you give me the number in %? Just the number is fine.

CC1(C)CC(O)=CC(=O)N1
4.45
COc1ccc2c(c1)C(=O)C1CCC(=O)N1C2c1ccc2c(c1)OCO2 (stereo not given)
-0.3
CNc1ccn(C2OC(CO)C(O)C2SC(C)(C)C)c(=O)n1 (stereo not given)
28.6
C1=N/C=C\C=C/c2ccc[n+](CCCCC[n+]3ccccc3-c3ccccn3)c21
75.2

Consider the record given below.
Which growth inhibition reading was recorded for the compound CC[C@@]1(C)CCC2c3ccc(O)cc3CC[C@H]2C1C (stereo not given in full) ? -6.6

* * *

growth inhibition overview
testDetails: NCI Yeast Anticancer Drug Screen. Data for the sgs1 mgt1 strain (AID 161);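 also: 0% = growth of cultures given vehicle only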
assayConditions: S. cerevisiae sgs1 mgt1 strain, at 50.0 µM, stronger effect = higher value
Compounds without any hit were thinned out: in the full panel of roughly 79,000, 15% have a hit.
Quick note: give the figure in %, leave out the unit.

Worked set:
O=c1c2cnc3cc(Cl)ccc3c2[nH]n1-c1ccc(Cl)cc1
1.85
CC[N+](C)(CC)c1ccccc1
-18.6
Cc1cc(N(CCC#N)CCC#N)ccc1/C=C1N=C(/C=C\c2ccccc2)OC\1=O
5.5
COc1ccc(OC)c2c3c([nH]c12)C(=O)Nc1nc(N)nc(N)c1C3
30.4
N#CCCn1nc(SC2CCCCC2)c(=O)[nH]c1=O
2.45

Name the reported growth inhibition value associated with the compound CC(=O)Nc1ccc(S(=O)(=O)N=S(C)C)cc1 -24.9

Which measured growth inhibition value corresponds to COc1cc2c3c(c1OC)C1(C=CC(=O)C=C1)CC3NCC2 (stereo unspecified) ? -8.5

Please give the measured growth inhibition for this compound: CS(=O)(=O)OCCOc1ccccc1 0.95

* * *

testDetails: NCI Yeast Anticancer Drug Screen. Data for the mlh1 rad18 strain (AID 175)
assayConditions: S. cerevisiae mlh1 rad18 strain growth inhibition; at 50.0 µM
Compounds without any hit were thinned out: in the full panel of roughly 79,000, 15% have a hit. The source made the active and inactive calls. Cut-off read from the data, not from the text of the source: active = growth inhibition above about 70%; inactive = the rest.
Outcomes you can answer with include only these: active, inactive

Here are 8 molecules together with their reported answers.
CCCCCCCCC(=O)N1SC(NC(=O)OC)=Nc2ccccc21
active
O=S(=O)(O)C(O)C(F)(F)C(F)(F)C(F)(F)F (stereo not drawn)
inactive
CC(=C(C#N)C#N)c1ccccc1
inactive
O=C(CSc1nnc(-c2ccc(N=Cc3ccc(Cl)cc3)cc2)o1)Nc1ccc(Cl)cc1
inactive
O=C1/C(=C/c2ccco2)N=C2Sc3c(nc[nH]c3=O)N12
inactive
Cc1csc2c1-n1cccc1C2=O
inactive
COc1ccc2nc(C)cc(N/N=C/c3cccc(C)n3)c2c1
inactive
O=C1CC(c2ccccc2)S(=O)(=O)c2ccccc2N1 (stereo not drawn)
inactive

Now take the following molecule into account.
What classification did CC(O)C1(O)C(O)CC(OC2c3cc4c(c(O)c3[C@@H]3C[C@@]2(C)OC32C=c3cc[nH]c3=N2)C(=O)c2cccc(O)c2C4=O)OC1C (stereo partly drawn) end up with in this test? inactive

* * *

testDetails: NCI Yeast Anticancer Drug Screen. Data for the rad50 strain (AID 155);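 also: 0% = growth of vehicle-only cultures of the same strain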
assayConditions: S. cerevisiae rad50 strain growth inhibition; at 50.0 µM; stronger effect = higher value
This is part of a sample that, as a whole, favours compounds with a hit. Of some 79,000 tested, about 15% had one in any assay.
attributeMeasured: growth inhibition (%)
Return type: number; implicit unit %.

CCC1C(C)(C)c2cc(C)c(C(C)=O)cc2C1(C)C (centres undefined)
-8.1
N#CC(=C1C=CC(=NO)C=C1)c1ccc(Cl)cc1
-0.05
CCN(CC)c1ccc(/C=N/NC(=O)NN)cc1
4.35
O/N=C1\CC2(N3CCOCC3)CCC1(Cc1ccccc1)CC2
36
N#Cc1ccc(CCc2ccccc2)cc1
1.2

Would you kindly share the measured growth inhibition for O=C(CSc1cc(Cl)c(Cl)cc1Cl)Nc1cccc(Cl)c1 ? -7.9

growth inhibition for CCOc1c(N=Nc2ccccc2C)c(C)nn1C(=S)SC ? -1.2

Look up growth inhibition: C=CCNC(=O)/C=C/C 1.95

What growth inhibition value was documented for this compound, Cc1ccc(F)cc1S(N)(=O)=O ? -19.4

For the compound Cc1cc(C)c(C(=O)CSC(=N)N)c(C)c1 , what growth inhibition is on record? -4.45

Consider the compound shown here: COC(=O)c1ccc(C(=O)c2ccccc2)cc1 What is its recorded growth inhibition? -1.15

Can you look up the measured growth inhibition of O/N=C1\CCCC\C1=N/O for me? 6.55

// growth inhibition lookup, key: CCOC(=O)C1=C(C)c2ccccc2OC1C(=O)O (centres undefined) 4.55

Name the reported growth inhibition value associated with the compound Cc1cccc(Cl)c1NC1=NCCN1C(=O)CC(=O)c1ccccc1 54.1
